# System: T1, extracellular domain of human BCMA (human, UniProt Q02223 1-54)
# T1 construct: amine-linked to Octet AR2G tips; also called hsBCMA; BCMA (human)
# T1 sequence: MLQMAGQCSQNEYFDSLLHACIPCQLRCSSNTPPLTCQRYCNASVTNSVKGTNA
# Assay Protocol: Octet BLI; Fab 200 nM
pKd listing for selected binders.
# log scale: pKd equals minus log10 of the concentration in mol/L

// known answers, use as guide
INSERT INTO measurements (binder, value_kind, endpoint_result) VALUES
  ('AB200-(2Vk30)_R2-VH-v45 (Fab, V domains shown) VH: QVQLVQSGAEVKKPGSSVKVSCKASGGTYSNYWIHWVRQAPGQGLEWMGATYRIHSTTNYNQKFKSRVTITADKSTSTAYMELSSLRSEDTAVYYCARGAIFHGYDVIDNWGQGTLVTVSS VL: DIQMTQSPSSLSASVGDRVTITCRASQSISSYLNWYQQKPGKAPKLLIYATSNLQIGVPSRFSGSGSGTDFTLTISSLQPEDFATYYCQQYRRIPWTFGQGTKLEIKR', 'pKd', 6.14),
  ('AB200-(2Vk30)_R2-VH-v67 (Fab, V domains shown) VH: QVQLVQSGAEVKKPGSSVKVSCKASGGTFSNYWIHWVRQAPGQGLEWMGATYRIHSTTYYNEKFKSRVTITADKSTSTAYMELSSLRSEDTAVYYCARGAVYHGYDVIDNWGQGTLVTVSS VL: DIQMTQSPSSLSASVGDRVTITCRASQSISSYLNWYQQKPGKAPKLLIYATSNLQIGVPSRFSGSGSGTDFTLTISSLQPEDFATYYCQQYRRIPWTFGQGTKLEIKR', 'pKd', 7.77),
  ('AB200-(2Vk30)_R2-VH-v23 (Fab, V domains shown) VH: QVQLVQSGAEVKKPGSSVKVSCKASGGTFSNYWIHWVRQAPGQGLEWMGGTYRSHSDTYYNQKYKSRVTITADKSTSTAYMELSSLRSEDTAVYYCARGAIFHGYDVIDNWGQGTLVTVSS VL: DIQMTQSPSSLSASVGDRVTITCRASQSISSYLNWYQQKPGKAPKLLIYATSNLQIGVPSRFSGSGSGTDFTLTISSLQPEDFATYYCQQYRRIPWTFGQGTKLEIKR', 'pKd', 8.16),
  ('AB200-(2Vk30)_R2-VH-v16 (Fab, V domains shown) VH: QVQLVQSGAEVKKPGSSVKVSCKASGGSFSNYWIHWVRQAPGQGLEWMGGTYRSHSDTNYNQKFKSRVTITADKSTSTAYMELSSLRSEDTAVYYCARGAIFHGYDVIDNWGQGTLVTVSS VL: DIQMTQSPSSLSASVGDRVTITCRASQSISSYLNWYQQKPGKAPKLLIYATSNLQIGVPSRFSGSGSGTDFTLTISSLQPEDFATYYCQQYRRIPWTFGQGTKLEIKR', 'pKd', 7.13),
  ('AB200-(2Vk30)_R2-VH-v40 (Fab, V domains shown) VH: QVQLVQSGAEVKKPGSSVKVSCKASGGTFTNYWIHWVRQAPGQGLEWMGATYRIHSTTYYAQKFKSRVTITADKSTSTAYMELSSLRSEDTAVYYCARGAIYHGFDVIDNWGQGTLVTVSS VL: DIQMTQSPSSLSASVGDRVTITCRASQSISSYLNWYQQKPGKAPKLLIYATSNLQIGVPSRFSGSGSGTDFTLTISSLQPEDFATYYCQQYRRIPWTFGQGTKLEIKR', 'pKd', 7.81);

Let us move to another entry and its pKd.
Entry AB200-(2Vk30)_R2-VH-v65 (Fab, V domains shown) VH: QVQLVQSGAEVKKPGSSVKVSCKASGGTFSNYWIHWVRQAPGQGLEWMGATYRIQSTTYYNQKFKSRVTITADKSTSTAYMELSSLRSEDTAVYYCARGAIYHGFDVIDNWGQGTLVTVSS VL: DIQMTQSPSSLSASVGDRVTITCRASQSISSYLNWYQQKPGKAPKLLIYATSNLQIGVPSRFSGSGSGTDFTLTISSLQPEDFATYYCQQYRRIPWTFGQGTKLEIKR — recorded pKd = 7.56
